- target_of_assay: mouse ADAMTS7 (Mus musculus, UniProt Q68SA9, E373Q)
- Construct: Full-length mouse Adamts7 1-1857 (Uniprot Q68SA9, WT or E373Q catalytic mutant); expressed in transfected cells; host or cells: Human Coronary Artery Smooth Muscle Cells (HCA-SMC, Lonza), adenovirus 50 MOI
- Sequence (Q68SA9 221-1657 E373Q): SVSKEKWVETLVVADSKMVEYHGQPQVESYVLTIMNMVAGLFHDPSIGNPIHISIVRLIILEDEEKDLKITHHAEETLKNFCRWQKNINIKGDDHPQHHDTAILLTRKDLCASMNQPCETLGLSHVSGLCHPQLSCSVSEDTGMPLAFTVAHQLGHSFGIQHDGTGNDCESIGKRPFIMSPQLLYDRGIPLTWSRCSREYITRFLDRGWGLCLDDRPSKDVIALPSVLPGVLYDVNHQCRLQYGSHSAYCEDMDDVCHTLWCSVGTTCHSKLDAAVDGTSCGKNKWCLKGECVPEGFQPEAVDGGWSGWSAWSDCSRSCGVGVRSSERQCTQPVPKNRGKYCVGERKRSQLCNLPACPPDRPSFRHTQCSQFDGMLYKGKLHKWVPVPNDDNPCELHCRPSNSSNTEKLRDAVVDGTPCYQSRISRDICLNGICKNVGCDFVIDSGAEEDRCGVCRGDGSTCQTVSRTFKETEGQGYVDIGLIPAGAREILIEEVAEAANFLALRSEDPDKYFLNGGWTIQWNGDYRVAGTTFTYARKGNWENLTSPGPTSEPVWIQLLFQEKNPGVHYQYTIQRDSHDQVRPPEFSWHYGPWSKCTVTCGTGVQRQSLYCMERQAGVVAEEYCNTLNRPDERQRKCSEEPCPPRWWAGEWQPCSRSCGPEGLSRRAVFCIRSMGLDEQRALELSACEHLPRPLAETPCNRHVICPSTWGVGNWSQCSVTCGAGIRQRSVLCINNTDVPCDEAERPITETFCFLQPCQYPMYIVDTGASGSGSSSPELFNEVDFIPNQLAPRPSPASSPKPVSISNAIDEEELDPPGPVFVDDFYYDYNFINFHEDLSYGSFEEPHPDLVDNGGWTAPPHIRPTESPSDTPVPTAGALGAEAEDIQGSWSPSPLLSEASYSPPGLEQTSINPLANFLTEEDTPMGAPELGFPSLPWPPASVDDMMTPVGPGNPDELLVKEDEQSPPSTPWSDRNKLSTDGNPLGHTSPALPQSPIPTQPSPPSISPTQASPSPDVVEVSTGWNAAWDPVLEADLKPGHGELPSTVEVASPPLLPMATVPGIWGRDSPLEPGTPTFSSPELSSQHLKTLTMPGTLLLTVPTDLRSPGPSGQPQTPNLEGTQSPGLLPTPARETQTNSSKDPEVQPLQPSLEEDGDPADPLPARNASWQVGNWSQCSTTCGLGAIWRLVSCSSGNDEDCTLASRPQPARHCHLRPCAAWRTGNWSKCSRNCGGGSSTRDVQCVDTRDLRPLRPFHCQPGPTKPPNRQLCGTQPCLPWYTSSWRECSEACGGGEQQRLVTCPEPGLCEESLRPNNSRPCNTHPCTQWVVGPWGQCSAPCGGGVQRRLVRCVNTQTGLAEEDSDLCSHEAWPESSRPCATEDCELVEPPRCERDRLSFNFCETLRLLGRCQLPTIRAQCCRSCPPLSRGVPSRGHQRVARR
- method: TMT10 TAILS N-terminomics, SMC2 experiment (process replicates, trypsin/AspN digest)
- Assay type: cell-based
- measurement_setup: SMC2_TAILS HC; log fold change, mEQ over Luc
Examples of substances with documented logFC.mEQ.over.Luc follow.
# answer = number (no unit)

Examples with answers:
substance	logFC.mEQ.over.Luc
CTSB_109 (WAFGAVEAIS; listed as Homo sapiens)	−0.08
HEG1_224 (FQTKSGTAS; listed as Homo sapiens)	0.29
LOX_60 (LGSQYQPQR; listed as Homo sapiens)	−0.34
LOX_125 (FQAGYSTSR; listed as Homo sapiens)	0.11
LOXL1_157 (SVSASAFASTYR; listed as Homo sapiens)	−0.19

Ask: Fill in the blank: the reported logFC.mEQ.over.Luc of ADAM10_86 (FKVETSNKVL; listed as Homo sapiens) is ____.
Result: −0.29

Ask: Return reported logFC.mEQ.over.Luc; argument: COL1A2_960 (AGAPGPHGPVGPAGKHGNR; listed as Homo sapiens)
Result: −0.16

Ask: Bench note: what logFC.mEQ.over.Luc did APLP2_452 (LVETHLAR; listed as Homo sapiens) show?
Result: 0.11

Reference source: patent US20240368668A1
